Recorded IC50 values for a group of compounds are listed next.
- Tested on: HCT-116
- PROTOCOL_NOTES: Cytotoxicity against human HCT116 cells after 96 hrs by MTT assay
- Type: functional, cell-based
- RECORDED_CONDITIONS: HCT-116, 96 h
ENDPOINT_LABEL: IC50

| SMILES_RECORD | TARGET_SYSTEM | ENDPOINT_LABEL | ASSAY_VALUE |
| --- | --- | --- | --- |
| CC[C@H](CC[C@@H](C)[C@H]1CC[C@H]2[C@@H]3CC(=O)N(CCO)[C@H]4C[C@@H](OC(C)=O)CC[C@]4(C)[C@H]3CC[C@]12C)C(C)C | HCT-116 | IC50 | 4.24 µM |
| CC[C@H](CC[C@@H](C)[C@H]1CC[C@H]2[C@@H]3CC(=O)N(CCO)[C@H]4CCCC[C@]4(C)[C@H]3CC[C@]12C)C(C)C | HCT-116 | IC50 | 3.96 µM |
| CC[C@H](CC[C@@H](C)[C@H]1CC[C@H]2[C@@H]3CC(=O)N(CCO)[C@H]4C[C@@H](Cl)CC[C@]4(C)[C@H]3CC[C@]12C)C(C)C | HCT-116 | IC50 | 2.72 µM |
| CC[C@H](CC[C@@H](C)[C@H]1CC[C@H]2[C@@H]3CC(=O)[C@H]4CCCC[C@]4(C)[C@H]3CC[C@]12C)C(C)C | HCT-116 | IC50 | 4.51 µM |
| CC[C@H](CC[C@@H](C)[C@H]1CC[C@H]2[C@@H]3CC(=O)[C@H]4C[C@@H](Cl)CC[C@]4(C)[C@H]3CC[C@]12C)C(C)C | HCT-116 | IC50 | 3.15 µM |
| COc1cccc2c1C(=O)c1c(O)c3c(c(O)c1C2=O)C[C@@](O)(C(=O)CO)C[C@@H]3O[C@H]1C[C@H](N)[C@H](O)[C@H](C)O1 | HCT-116 | IC50 | 2.56 µM |
| CC[C@H](CC[C@@H](C)[C@H]1CC[C@H]2[C@@H]3CC(=O)[C@H]4C[C@@H](OC(C)=O)CC[C@]4(C)[C@H]3CC[C@]12C)C(C)C | HCT-116 | IC50 | 5.02 µM |

Data provenance is ChEMBL document CHEMBL2429808.
